procedure summary: Ratio of steady state drug level in brain to plasma in MDR1A/B/BCRP1 FVB mouse at 0.6 mg/h/kg, ip administered as infusion after 48 hrs by LC-MS/MS analysis
Assay type: ADME, organism-based
condition: read-out: BPR
quantity kind: Kp at 48 h
Field format: numeric only.

Lab note: C#Cc1cccc(Nc2ncnc3cc(OCCOC)c(OCCOC)cc23)c1.Cl [ERLOTINIB HYDROCHLORIDE] gave Kp at 48 h of 0.62

* * *

procedure summary: Ratio of steady state drug level in brain to plasma in MDR1A/B FVB mouse at 0.6 mg/h/kg, ip administered as infusion after 48 hrs by LC-MS/MS analysis
Format: ADME, organism-based
condition: read-out: BPR
quantity kind: Kp at 48 h

Lab note: C#Cc1cccc(Nc2ncnc3cc(OCCOC)c(OCCOC)cc23)c1.Cl [ERLOTINIB HYDROCHLORIDE] gave Kp at 48 h of 0.09

* * *

procedure summary: Ratio of drug level in brain contralateral hemisphere to plasma in Rowett rat orthotopically xenografted with human U87 cells at 20 mg/kg/day, po for 5 days by LC-MS/MS analysis
Type: ADME, organism-based, U-87MG ATCC
Parameters: route oral
condition: read-out: BPR
quantity kind: Kp at 120 h
Field format: numeric only.

Lab note: C#Cc1cccc(Nc2ncnc3cc(OCCOC)c(OCCOC)cc23)c1.Cl [ERLOTINIB HYDROCHLORIDE] gave Kp at 120 h of 0.09

* * *

procedure summary: Ratio of drug level in tumor core to plasma in Rowett rat orthotopically xenografted with human U87 cells at 20 mg/kg/day, po for 5 days by LC-MS/MS analysis
Type: ADME, organism-based, U-87MG ATCC
Design: route oral
quantity kind: Kp at 120 h
Field format: numeric only.

Lab note: C#Cc1cccc(Nc2ncnc3cc(OCCOC)c(OCCOC)cc23)c1.Cl [ERLOTINIB HYDROCHLORIDE] gave Kp at 120 h of 0.51

* * *

procedure summary: Drug uptake at steady state in BCRP1 knock-out FVB mouse brain at 0.6 mg/h/kg, ip administered as infusion after 48 hrs by LC-MS/MS analysis
Assay type: ADME, organism-based
condition: read-out: Drug uptake
quantity kind: concentration at 48 h (ng/g)
Please reply with the bare figure in ng/g and do not write the unit itself.

Lab note: C#Cc1cccc(Nc2ncnc3cc(OCCOC)c(OCCOC)cc23)c1.Cl [ERLOTINIB HYDROCHLORIDE] gave concentration at 48 h of 4.9

* * *

procedure summary: Drug uptake in tumor core of Rowett rat orthotopically xenografted with human U87 cells at 20 mg/kg/day, po for 5 days by LC-MS/MS analysis
Type: ADME, organism-based, U-87MG ATCC
Design: route oral
condition: read-out: Drug uptake
quantity kind: concentration at 120 h (ng/g)
Please reply with the bare figure in ng/g and do not write the unit itself.

Lab note: C#Cc1cccc(Nc2ncnc3cc(OCCOC)c(OCCOC)cc23)c1.Cl [ERLOTINIB HYDROCHLORIDE] gave concentration at 120 h of 1830

* * *

procedure summary: Plasma concentration at steady state in MDR1A/B/BCRP1 knock-out FVB mouse at 0.6 mg/h/kg, ip administered as infusion after 48 hrs by LC-MS/MS analysis
Type: ADME, organism-based
condition: read-out: Cpss
quantity kind: concentration at 48 h (ng/mL)
Please reply with the bare figure in ng/mL and do not write the unit itself.

Lab note: C#Cc1cccc(Nc2ncnc3cc(OCCOC)c(OCCOC)cc23)c1.Cl [ERLOTINIB HYDROCHLORIDE] gave concentration at 48 h of 99

* * *

procedure summary: Plasma concentration at steady state in MDR1A/B knock-out FVB mouse at 0.6 mg/h/kg, ip administered as infusion after 48 hrs by LC-MS/MS analysis
Format: ADME, organism-based
condition: read-out: Cpss
quantity kind: concentration at 48 h (ng/mL)
Please reply with the bare figure in ng/mL and do not write the unit itself.

Lab note: C#Cc1cccc(Nc2ncnc3cc(OCCOC)c(OCCOC)cc23)c1.Cl [ERLOTINIB HYDROCHLORIDE] gave concentration at 48 h of 81

* * *

procedure summary: Plasma concentration at steady state in wild-type FVB mouse at 0.6 mg/h/kg, ip administered as infusion after 48 hrs by LC-MS/MS analysis
Assay type: ADME, organism-based
condition: read-out: Cpss
quantity kind: concentration at 48 h (ng/mL)
Please reply with the bare figure in ng/mL and do not write the unit itself.

Lab note: C#Cc1cccc(Nc2ncnc3cc(OCCOC)c(OCCOC)cc23)c1.Cl [ERLOTINIB HYDROCHLORIDE] gave concentration at 48 h of 72

* * *

procedure summary: Ratio of drug level in tumor rim to plasma in Rowett rat orthotopically xenografted with human U87 cells at 20 mg/kg/day, po for 5 days by LC-MS/MS analysis
Assay type: ADME, organism-based, U-87MG ATCC
Parameters: route oral
quantity kind: Kp at 120 h
Field format: numeric only.

Lab note: C#Cc1cccc(Nc2ncnc3cc(OCCOC)c(OCCOC)cc23)c1.Cl [ERLOTINIB HYDROCHLORIDE] gave Kp at 120 h of 0.1

* * *

procedure summary: Drug uptake at steady state in wild-type FVB mouse brain at 0.6 mg/h/kg, ip administered as infusion after 48 hrs by LC-MS/MS analysis
Format: ADME, organism-based
condition: read-out: Drug uptake
quantity kind: concentration at 48 h (ng/g)
Please reply with the bare figure in ng/g and do not write the unit itself.

Lab note: C#Cc1cccc(Nc2ncnc3cc(OCCOC)c(OCCOC)cc23)c1.Cl [ERLOTINIB HYDROCHLORIDE] gave concentration at 48 h of 4.3

* * *

procedure summary: Drug uptake at steady state in MDR1A/B/BCRP1 knock-out FVB mouse brain at 0.6 mg/h/kg, ip administered as infusion after 48 hrs by LC-MS/MS analysis
Type: ADME, organism-based
condition: read-out: Drug uptake
quantity kind: concentration at 48 h (ng/g)
Please reply with the bare figure in ng/g and do not write the unit itself.

Lab note: C#Cc1cccc(Nc2ncnc3cc(OCCOC)c(OCCOC)cc23)c1.Cl [ERLOTINIB HYDROCHLORIDE] gave concentration at 48 h of 34

* * *

procedure summary: Ratio of steady state drug level in brain to plasma in BCRP1 FVB mouse at 0.6 mg/h/kg, ip administered as infusion after 48 hrs by LC-MS/MS analysis
Assay type: ADME, organism-based
condition: read-out: BPR
quantity kind: Kp at 48 h

Lab note: C#Cc1cccc(Nc2ncnc3cc(OCCOC)c(OCCOC)cc23)c1.Cl [ERLOTINIB HYDROCHLORIDE] gave Kp at 48 h of 0.07

* * *

procedure summary: Plasma concentration at steady state in BCRP1 knock-out FVB mouse at 0.6 mg/h/kg, ip administered as infusion after 48 hrs by LC-MS/MS analysis
Type: ADME, organism-based
condition: read-out: Cpss
quantity kind: concentration at 48 h (ng/mL)
Please reply with the bare figure in ng/mL and do not write the unit itself.

Lab note: C#Cc1cccc(Nc2ncnc3cc(OCCOC)c(OCCOC)cc23)c1.Cl [ERLOTINIB HYDROCHLORIDE] gave concentration at 48 h of 71

* * *

procedure summary: Drug uptake at steady state in MDR1A/B knock-out FVB mouse brain at 0.6 mg/h/kg, ip administered as infusion after 48 hrs by LC-MS/MS analysis
Type: ADME, organism-based
condition: read-out: Drug uptake
quantity kind: concentration at 48 h

Lab note: C#Cc1cccc(Nc2ncnc3cc(OCCOC)c(OCCOC)cc23)c1.Cl [ERLOTINIB HYDROCHLORIDE] gave concentration at 48 h of 12 ng/g
